- study.target: Cellular tumor antigen p53 (Homo sapiens)
- procedure.details: Primary qHTS for small molecule compounds that upregulate eGFP-tagged delta133p53alpha (in C-terminal) cells. (AID 2060324)
- details: NCI-H358 delta133p53alpha-eGFP (C-terminal tag), GFP fluorescence imaging, 24 h; series mostly up to 57.5 µM
Results filed as inconclusive are left out. Calls of active or inactive are those of the source. Calls come from the whole dose curve; as a rule, active = well fitted activation curve with a large enough effect; inconclusive = small, poorly fitted or top-dose-only effect; inactive = flat fitted curve, though single readings scatter.
Outcome codes: yes (1) = active, no (0) = inactive

| compound | category |
| --- | --- |
| CN(C)CC[C@@H](c1ccc(Cl)cc1)c1ccccn1 | no (0) |
| CC1COc2c(N3CCN(C)CC3)c(F)cc3c(=O)c(C(=O)O)cn1c23 (stereo unspecified) | no (0) |
| Nc1nc(OCc2ccccc2)c2[nH]cnc2n1 | no (0) |
| OCCN1CCN(CCCN2c3ccccc3Sc3ccc(Cl)cc32)CC1 | no (0) |
| CCn1cc(C(=O)O)c(=O)c2cc3c(cc21)OCO3 | no (0) |
| Cc1cccc(-c2[nH]ncc2-c2ccc3ncccc3n2)n1 | no (0) |
| COCCOc1cc2nc[nH]c(=O)c2cc1OCCOC | no (0) |
| C#CCN(C)Cc1ccccc1 | no (0) |
| NC(=O)c1cnccn1 | no (0) |
| Cc1ccc(S(=O)(=O)/C=C/C#N)cc1 | yes (1) |
| OC1(c2ccc(Cl)cc2)CCN(Cc2c[nH]c3ccccc23)CC1 | no (0) |
| NC(=O)c1cc[n+](CC2=C(C(=O)O)N3C(=O)[C@@H](NC(=O)[C@@H](c4ccccc4)S(=O)(=O)[O-])[C@H]3SC2)cc1 | no (0) |
| CC(C)Cc1ccc(C(C)C(=O)O)cc1 (stereo unspecified) | no (0) |
| N[C@@H](Cc1ccc(O)c(I)c1)C(=O)O | no (0) |
| Nc1cc(Cl)c(NC2=NCCN2)c(Cl)c1 | no (0) |
| CCCCCC(O)CCCC(=O)O (stereo unspecified) | no (0) |
| O=c1n(CCCN2CCN(c3cccc(Cl)c3)CC2)nc2ccccn12 | no (0) |
| O=c1[nH]c(=S)[nH]c(-c2ccccc2)c1Cc1c(O)ccc2ccccc12 | no (0) |
| CC(CN(C)C)CN1c2ccccc2CCc2ccccc21 (stereo unspecified) | no (0) |
| CN1CCN2c3ccccc3Cc3ccccc3C2C1 (stereo unspecified) | no (0) |
| CC(=O)NCCc1c[nH]c2ccc(O)cc12 | no (0) |
| Nc1cc(=O)[nH]c(N)n1 | no (0) |
| O=C1C(SCCO)=C(SCCO)C(=O)c2ccccc21 | yes (1) |
| Clc1ccc2nsnc2c1NC1=NCCN1 | no (0) |
| CN(C)C(N)=NCCC[C@H](N)C(=O)O | no (0) |
| NC(N)=N[C@@H](CCC(=O)O)C(=O)O | no (0) |

---

- procedure.details: BET inhibitor-based combinations targeting novel dependencies in MECOM-rearranged (r) AML: SET-2 cell line (AID 2202231);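 note: plate controls were DMSO treated cells for no effect and wells without cells for full effect; nearly all actives have a fitted effect of over 35% in size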
- details: SET-2 AML cells viability, CellTiter-Glo luminescence, 48 h; stronger effect = lower value, concentration not given here
Results filed as inconclusive are left out.

| molecule | viability, % |
| --- | --- |
| CCn1cc(C(=O)O)c(=O)c2cc(F)c(N3CCN(C)CC3)cc21 | 97.2 |
| CCNCc1nc2c(N)nc3ccccc3c2n1CC(C)(C)O | 94.4 |
| Cn1cc(-c2ccc3ncc(Cc4ccc5ncccc5c4)n3n2)cn1 | 105 |
| C[C@]12CCC3c4ccc(O)cc4CCC3C1CCC2=O (stereo partly specified) | 99.9 |
| CC1=C(/C=C/C(C)=C/C=C/C(C)=C/C(=O)O)C(C)(C)CCC1 | 106 |
| N#Cc1ccnc(N2C(=O)CC[C@H]2C(=O)N(c2cncc(F)c2)[C@H](C(=O)NC2CC(F)(F)C2)c2ccccc2Cl)c1 | 105 |
| Cc1ccc(C(=O)c2cc(O)c(O)c([N+](=O)[O-])c2)cc1 | 104 |
| CCC(C)N(C)C(=O)c1cc2ccccc2c(-c2ccccc2Cl)n1 (stereo unspecified) | 102 |
| COc1cc2c(cc1OCCCN1CCCC1)N=C(N)C21CCC1 | 106 |
| CC(C)[C@H](O)C(=O)N[C@@H](C)C(=O)N[C@@H]1C(=O)N(C)CCc2ccccc21 | 117 |
| O=C(O)c1cc(O)c2c(c1)C(=O)c1cccc(O)c1C2=O | 115 |
| CCCCC(CC)COC(=O)C(C#N)=C(c1ccccc1)c1ccccc1 (stereo unspecified) | 108 |
| CCOCc1nc2c(N)nc3ccccc3c2n1CC(C)(C)O | 108 |
| COc1nc(C)nc(Cl)c1NC1=NCCN1 | 107 |
| CN1C(=O)C(Cc2c[nH]c3ccccc23)NC1=S (stereo unspecified) | 99.6 |
| CS(=O)(=O)Oc1ccc2c(NC(N)=O)c(C(=O)c3ccc(Cl)cc3Cl)oc2c1 | 97.1 |
| COc1cccc(OC)c1-c1cc(C(=O)NC2(C(=O)O)C3CC4CC(C3)CC2C4)nn1-c1ccnc2cc(Cl)ccc12 (stereo unspecified) | 114 |
| Cc1cc(Nc2ncnc3ccc(-c4ccc(CNCCS(C)(=O)=O)o4)cc23)ccc1Oc1ccn2ncnc2c1 | 75.4 |
| Cc1ccc(C(=O)Nc2ccc(S(=O)(=O)O)c3cc(S(=O)(=O)O)cc(S(=O)(=O)O)c23)cc1NC(=O)c1cccc(NC(=O)Nc2cccc(C(=O)Nc3cc(C(=O)Nc4ccc(S(=O)(=O)O)c5cc(S(=O)(=O)O)cc(S(=O)(=O)O)c45)ccc3C)c2)c1 | 108 |
| CC1(C)CCC(C)(C)c2cc(NC(=O)c3ccc(C(=O)O)cc3)ccc21 | 80.9 |
| CN1CC(=O)NC1=NC(=O)Nc1cccc(Cl)c1 | 111 |

---

- procedure.details: BET inhibitor-based combinations targeting novel dependencies in MECOM-rearranged (r) AML: UCSD-AML1 cell line (AID 2202235); note: nearly all actives have a fitted effect of over 40% in size
- details: UCSD-AML1 AML cells viability, CellTiter-Glo, 48 h; series mostly up to 46 µM
Records with an inconclusive call do not appear. Active and inactive are the calls of the source. Calls follow the shape of the dose curve; as a rule, active = well fitted inhibition curve with a large enough effect; inconclusive = small, poorly fitted or top-dose-only effect; inactive = no such curve, though single readings can be large or run the other way.
Outcome codes: active, inactive

| compound | category |
| --- | --- |
| Cc1nc(Nc2n[nH]c3c2CN(C(=O)N[C@H](CN(C)C)c2ccccc2)C3(C)C)c2sccc2n1 | active |
| Cc1cc2c(s1)Nc1ccccc1N=C2N1CCN(C)CC1 | inactive |
| c1ccc(-c2oc3ncnc(NC[C@@H]4CCCO4)c3c2-c2ccccc2)cc1 | inactive |
| C[C@@H](c1ccc2nccn2c1)n1nnc2ncc(-c3cnn(C)c3)nc21 | inactive |
| CC(C)[C@H](C(=O)Nc1ccc(C(=O)NO)cc1)c1ccccc1 | active |
| COc1cc(C(C)C)c(Oc2cnc(NC(CO)CO)nc2N)cc1I | inactive |
| Cc1nn(Cc2ccccc2Cl)c(C)c1CN(C)CC(O)COc1ccc(Cl)cc1 (stereo unspecified) | inactive |
| O=C(O)[C@@H](c1ccc(OCc2ccc3ccccc3n2)cc1)C1CCCC1 | inactive |
| COc1ccc(C2(C#N)CCC(C(=O)O)CC2)cc1OC1CCCC1 (stereo unspecified) | inactive |
| Nc1cc(C(F)(F)F)c(-c2cc(N3CCOCC3)nc(N3CCOCC3)n2)cn1 | active |
| CC(C)C(=O)Nc1ccc([N+](=O)[O-])c(C(F)(F)F)c1 | inactive |

---

- procedure.details: qHTS for Inhibitors of the Aldehyde Dehydrogenase Family (ALDH1A2, ALDH1A3, ALDH2, ALDH3A1) (AID 2061307); note: nearly all actives have a fitted effect of over 50% in size
- details: ALDH inhibition qHTS; series mostly up to 50.3 µM
Results filed as inconclusive are left out. Activity calls are given as the source filed them. The call rests on the fitted dose curve; in most records, active means well fitted inhibition curve with a large enough effect; inconclusive means small, poorly fitted or top-dose-only effect; inactive means no such curve, though single readings can be large or run the other way.
Outcome codes: active, inactive

| molecule | category |
| --- | --- |
| O=C(NC1CCCc2c1cnn2-c1ccc(F)cc1F)c1ccncc1 (stereo not given) | inactive |
| Cc1c(NC(=O)c2cc3c(s2)CCCC3)cccc1-c1cn(C)c(=O)c(Nc2ccc(C3C(=O)N(C)CCN3C)cc2)n1 (stereo not given) | active |
| CO/N=C(/C(=O)N[C@@H]1C(=O)N2C(C(=O)O)=C(Cn3ccc(=N)n3CCO)CS[C@H]12)c1csc(N)n1 | inactive |
| CC(=O)N1CCN(c2ccc(NCc3ccc(-c4ccc(Br)cc4)o3)cc2)CC1 | active |
| COCC(=O)O[C@]1(CCN(C)CCCc2nc3ccccc3[nH]2)CCc2cc(F)ccc2[C@@H]1C(C)C | inactive |
| CC(C)(C)OC(=O)N1CCN(c2ccc(NCc3ccc(-c4cccc([N+](=O)[O-])c4)o3)cc2)CC1 | active |
| CC(=O)Nc1sc2c(c1-c1cc3ccccc3[nH]1)CCNC2 | inactive |
| OC[C@@]1(O)CO[C@@H](OC[C@H]2O[C@@H](Oc3ccccc3)[C@H](O)[C@@H](O)[C@@H]2O)[C@@H]1O | inactive |
| Cc1ccc(OCCn2c(CCNC(=O)c3cccc(Cl)c3)nc3ccccc32)cc1 | inactive |
| Cc1onc(-c2ccccc2)c1C(=O)N[C@@H]1C(=O)N2[C@@H]1SC(C)(C)[C@@H]2C(=O)O | inactive |
| Cc1ccc(-c2nccc(=O)n2CC(=O)NCCc2ccccc2)cc1 | inactive |
| COc1ccc(N2Cc3cccc(C(=O)O)c3C2=O)c(OC)c1 | inactive |
| CC(=O)Nc1sc2c(c1-c1ccc(C(F)(F)F)cc1)CCNC2 | inactive |
| C=C(C)C(=O)O[C@H]1[C@H]2C(=C)C(=O)O[C@@H]2/C=C(\CO)CC/C=C(/C=O)[C@@H]1O | inactive |
| Cc1ccc(OCCn2c(CCNC(=O)c3ccccc3[N+](=O)[O-])nc3ccccc32)cc1 | inactive |
| CCCN(CCN1CCN(c2ccccc2OC)CC1)C1CCc2ncsc2C1 (stereo not given) | inactive |
| COc1ccc(-c2nc3ccccc3c(=O)n2Cc2ccc(CNC(=O)CO)cc2)cc1COc1ccc(NC(C)=O)cc1 | active |
| CC(C)(C)c1ccc(SC2=NS(=O)(=O)c3ccccc32)cc1 | inactive |
| Cc1cc(=O)oc2c(C=O)c(O)ccc12 | inactive |
| O=C(O)c1ccc2c(c1)C(=O)N([C@]1(C(=O)O)C[C@H]1c1ccccc1)C2=O | inactive |
| N#Cc1ccc(-c2ccc(C3Nc4ccccc4C(=O)N3O)o2)cc1 (stereo not given) | active |
| Cc1ccc(-c2nn3c(C)nnc3s2)cc1NCc1ccc(-c2cccc(Cl)c2)o1 | active |
| O=C(Cc1ccc(Cl)c(Cl)c1)Nc1ccc(S(=O)(=O)Nc2cccc(C(=O)O)c2)cc1 | inactive |
| COc1ccc(-c2csc(N3CCC(C(N)=O)CC3)n2)cc1 | inactive |
| NC(=O)C1CCN(c2ncc(-c3ccc(Cl)cc3)s2)CC1 | active |
| Cc1ccccc1C[C@H](C(=O)O)N1C(=O)c2ccc(C(=O)O)cc2C1=O | inactive |
| CCN1CCN(C(=O)N[C@@H](C(=O)N[C@@H]2C(=O)N3[C@@H]2SC(C)(C)[C@@H]3C(=O)O)c2ccccc2)C(=O)C1=O | inactive |
| c1cncc(-c2ccc(CNc3nc(C4CCCC4)nc4ccccc34)cc2)c1 | inactive |
| O=C1Cc2cc(C(=O)c3ccco3)ccc2N1 | active |
| O=C(Nc1ccc2c(c1)CCC2)Nc1nnc(-c2ccncc2)s1 | inactive |
| COc1ccc(C2Nc3ccccc3C(=O)N2Cc2ccco2)cc1COc1cccc(NC(C)=O)c1 (stereo not given) | active |
| N#Cc1ccc(-c2ccc(CNc3ccc(N4CCOCC4)cc3)o2)cc1 | active |
| CCc1nn2c(=O)cc(-c3ccncc3)nc2s1 | inactive |
| COc1ccc(C2=Nn3c(nnc3-c3cc(OC)cc(OC)c3)SC2)cc1 | inactive |
| COc1ccc(C2Nc3ccccc3C(=O)N2Cc2ccccc2)cc1COc1ccc(NC(=O)c2ccccc2)cc1 (stereo not given) | active |
| COCC(=O)NC/C=C/c1ccc2ncnc(Nc3ccc(Oc4ccc(C)nc4)c(C)c3)c2c1 | active |
| CCOC(=O)c1ccc(O)c2ncc(-c3ccc(C(=N)N)cc3)cc12 | inactive |
| O=C(NN1CCCC1)NS(=O)(=O)c1ccc(Cl)cc1 | inactive |
| COc1ccc(C2Nc3ccccc3C(=O)N2Cc2cccc(C(F)(F)F)c2)cc1COc1ccc(NC(C)=O)cc1 (stereo not given) | active |
| S=C(Nc1cc(Cl)ccn1)N1CCN(c2ccc3ccccc3n2)CC1 | active |
